MFI ratio over secondary antibody listing for selected binders.
- ASSAY SYSTEM: T1, Full length mouse CD98hc on CHO cells (mouse, UniProt P10852 1-526)
- T1 construct: CHO cells stably overexpressing it; also called CHO-mouse CD98hc; CHO-mCD98hc
- T1 sequence: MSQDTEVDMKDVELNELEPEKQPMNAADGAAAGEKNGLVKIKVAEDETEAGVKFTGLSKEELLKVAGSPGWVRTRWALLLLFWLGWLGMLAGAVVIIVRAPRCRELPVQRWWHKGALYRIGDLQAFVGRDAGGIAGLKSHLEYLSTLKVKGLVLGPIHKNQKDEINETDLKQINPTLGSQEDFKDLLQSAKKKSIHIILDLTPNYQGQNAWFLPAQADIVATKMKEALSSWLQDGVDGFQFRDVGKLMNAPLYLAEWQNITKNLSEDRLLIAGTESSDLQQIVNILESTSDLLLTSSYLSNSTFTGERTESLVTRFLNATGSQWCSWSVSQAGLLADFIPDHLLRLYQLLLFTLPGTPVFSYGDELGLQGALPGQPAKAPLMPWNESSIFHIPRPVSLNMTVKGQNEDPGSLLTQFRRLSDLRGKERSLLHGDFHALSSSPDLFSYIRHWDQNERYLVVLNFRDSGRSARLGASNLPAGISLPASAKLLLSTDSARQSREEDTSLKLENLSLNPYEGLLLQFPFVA
- METHOD NOTES: FACS, hybridoma supernatant
I only need the number, thanks.

CD98HC.04.063 (antibody, V domains shown, hybridoma IgG) VH: EVKLEESGGGLVQPGGSMILSCVASGFTFSNSWMNWVRQSPEKGLEWVAEIRLRSNNYATHYAESVKGRFTISRDDSKSTVYLQMNNLRAEDTGIYYCSRGDPGAYWGQGTLVTVSA VL: DIQMTQSSSYLSVSLGNRVTITCKASDHIKNWLAWFQQKPGNAPRLLISGATILETGVPSRFSGSGSGKDYTLSITSLQTEDVATYYCQQYWSTPYTFGGGTKLEIK: 1.2

Attention now turns to another entry.
QUERY: Name the reported MFI ratio over secondary antibody value associated with the binder CD98HC.03.031 (antibody, V domains shown, hybridoma IgG) VH: QVQLQQSGAELVRPGVSVKISCKASGYTFTDYAMHWVKQSHAKSLEWIGVISTYYGDTTYNQKFKDKATMTVDKSSSTAYLELARLTSEDSAIYYCARVWLLSYAMDNWGQGTSVTVSS VL: DIVMTQSQRFMSTSVGDGVRITCKASQNVRTAVAWYQQKPGQSPKALINLAPNRHTGVPDRFTARGSGTDFTLTISNVQSEDLADYFCLQHWNYPLTFGAGTKLELK
RESULT: 1.2
